- experimental target: Recombinant human MASP2 enzyme (fragment corresponding to amino acids 297-686, C-terminal His Tag) (human, UniProt O00187 297-686)
- Sequence (O00187 other isoform, or with tags, fused parts or gaps limits assumed): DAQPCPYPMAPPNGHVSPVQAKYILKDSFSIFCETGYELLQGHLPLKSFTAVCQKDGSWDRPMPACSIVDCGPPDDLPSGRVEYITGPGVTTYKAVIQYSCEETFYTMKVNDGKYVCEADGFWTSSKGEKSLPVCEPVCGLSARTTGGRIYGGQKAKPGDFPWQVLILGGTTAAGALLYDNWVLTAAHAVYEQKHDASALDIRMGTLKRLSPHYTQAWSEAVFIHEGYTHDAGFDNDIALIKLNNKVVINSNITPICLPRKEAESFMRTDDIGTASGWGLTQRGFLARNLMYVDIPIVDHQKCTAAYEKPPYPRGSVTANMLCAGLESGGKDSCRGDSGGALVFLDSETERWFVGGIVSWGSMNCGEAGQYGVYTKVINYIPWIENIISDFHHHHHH
- test name: cell-based or functional assay
Bridge positions count the residues as written; N and C are the ends. Square brackets hold non-standard residues; d marks the D form. Ends that are not written are not given here. * marks the point of attachment. Oic = O=C(O)[C@@H]1C[C@@H]2CCCC[C@@H]2N1; Cyclopropylacetic acid = O=C(CC1CC1)*; tBuAla = CC(C)(C)C[C@H](N)C(=O)O; Pen = CC(C)(S)[C@H](N)C(=O)O; NMeC = CN[C@@H](CS)C(=O)O; Sar = CNCC(=O)O
Returns: string. Value is yes if measured human MASP2 IC50 is below 0.2 µM, and no if it is greater than or equal to it.

I wonder whether {Cyclopropylacetic acid}-ICSRS[tBuAla]PPI[NMeC]I-NH2 (disulfide 2-10; SMILES CC[C@H](C)[C@H](NC(=O)[C@@H]1CSSC[C@H](NC(=O)[C@@H](NC(=O)CC2CC2)[C@@H](C)CC)C(=O)N[C@@H](CO)C(=O)N[C@@H](CCCNC(=N)N)C(=O)N[C@@H](CO)C(=O)N[C@@H](CC(C)(C)C)C(=O)N2CCC[C@H]2C(=O)N2CCC[C@H]2C(=O)N[C@@H]([C@@H](C)CC)C(=O)N1C)C(N)=O) [(Cyclopropylacetic acid)-IC+SRS-((tBu)A)-PPI-((N-Me)C)+I-NH2] has human MASP2 IC50 below 0.2 µM. Can you tell?
yes

Determine if [Sar]ICSRSLP[Oic]I[Pen]IPE-OH (disulfide 3-11; N-terminus assumed; SMILES CC[C@H](C)[C@H](NC(=O)CNC)C(=O)N[C@H]1CSSC(C)(C)[C@@H](C(=O)N[C@H](C(=O)N2CCC[C@H]2C(=O)N[C@@H](CCC(=O)O)C(=O)O)[C@@H](C)CC)NC(=O)[C@H]([C@@H](C)CC)NC(=O)[C@@H]2C[C@@H]3CCCC[C@@H]3N2C(=O)[C@@H]2CCCN2C(=O)[C@H](CC(C)C)NC(=O)[C@H](CO)NC(=O)[C@H](CCCNC(=N)N)NC(=O)[C@H](CO)NC1=O) [((N-Me)G)-IC+SRSLP-(Oic)-I-(Pen)+IPE-OH] shows human MASP2 IC50 strictly lower than 0.2 µM.
yes

Item [Sar]ICSRSLP[Oic]I[Pen]I-OH (disulfide 3-11; N-terminus assumed; SMILES CC[C@H](C)[C@H](NC(=O)[C@H]1NC(=O)[C@H]([C@@H](C)CC)NC(=O)[C@@H]2C[C@@H]3CCCC[C@@H]3N2C(=O)[C@@H]2CCCN2C(=O)[C@H](CC(C)C)NC(=O)[C@H](CO)NC(=O)[C@H](CCCNC(=N)N)NC(=O)[C@H](CO)NC(=O)[C@@H](NC(=O)[C@@H](NC(=O)CNC)[C@@H](C)CC)CSSC1(C)C)C(=O)O) [((N-Me)G)-IC+SRSLP-(Oic)-I-(Pen)+I-OH] : human MASP2 IC50 beneath 0.2 µM, strictly?
no

Consider the binder AICSRS[tBuAla]PP[(2S)‑2‑(Amino)‑2‑((1S,3S)-3-hydroxycyclohexyl)acetic acid][NMeC]IPD-NH2 (disulfide 3-11) [AIC+SRS-((tBu)A)-PP-((2S)-2-(Amino)-2-[(1S,3S)-3-hydroxycyclohexyl]acetic acid)-((N-Me)C)+IPD-NH2] . Is its human MASP2 IC50 strictly less than 0.2 µM?
no

Lab note: human MASP2 IC50 threshold 0.2 µM. Does this binder come in strictly under it? GICSRS[tBuAla]P[Oic]I[NMeC]IPD-NH2 (disulfide 3-11; N-terminus assumed; SMILES CC[C@H](C)[C@H](NC(=O)CN)C(=O)N[C@H]1CSSC[C@@H](C(=O)N[C@H](C(=O)N2CCC[C@H]2C(=O)N[C@@H](CC(=O)O)C(N)=O)[C@@H](C)CC)N(C)C(=O)[C@H]([C@@H](C)CC)NC(=O)[C@@H]2C[C@@H]3CCCC[C@@H]3N2C(=O)[C@@H]2CCCN2C(=O)[C@H](CC(C)(C)C)NC(=O)[C@H](CO)NC(=O)[C@H](CCCNC(=N)N)NC(=O)[C@H](CO)NC1=O) [GIC+SRS-((tBu)A)-P-(Oic)-I-((N-Me)C)+IPD-NH2]
no
